EXPERIMENTAL TARGET: Neuronal acetylcholine receptor
TEST: Binding affinity towards rat forebrain nicotinic acetylcholine receptor using [3H]EB as radioligand
pKi: −log10 of the molar value.

| MOLECULE | pKi |
| --- | --- |
| C[N+](C)(C)CCO [CHOLINE] | 4.38 |
| O=c1cccc2n1C[C@@H]1CNC[C@H]2C1 [CYTISINICLINE] | 8.60 |
| Ic1cncc(O[C@H]2CCN2)c1 | 9.85 |

---

EXPERIMENTAL TARGET: Neuronal acetylcholine receptor; alpha2/beta2 (Rattus norvegicus, UniProt P12389+P12390)
Sequence (P12389 whole entry): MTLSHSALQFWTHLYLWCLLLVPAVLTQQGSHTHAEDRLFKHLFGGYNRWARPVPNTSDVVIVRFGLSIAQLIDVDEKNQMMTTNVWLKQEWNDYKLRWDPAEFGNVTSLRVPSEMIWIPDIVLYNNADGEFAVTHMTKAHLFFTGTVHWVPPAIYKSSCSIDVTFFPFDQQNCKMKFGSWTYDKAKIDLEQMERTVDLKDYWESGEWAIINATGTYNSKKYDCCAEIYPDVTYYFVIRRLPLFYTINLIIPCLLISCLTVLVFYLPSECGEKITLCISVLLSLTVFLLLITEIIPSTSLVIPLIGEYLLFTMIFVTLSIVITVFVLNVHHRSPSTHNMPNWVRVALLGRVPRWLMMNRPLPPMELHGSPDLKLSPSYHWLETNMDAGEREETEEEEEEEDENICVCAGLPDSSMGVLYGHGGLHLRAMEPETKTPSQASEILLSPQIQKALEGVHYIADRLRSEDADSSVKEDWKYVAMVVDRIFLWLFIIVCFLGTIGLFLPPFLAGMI
Sequence (P12390 whole entry): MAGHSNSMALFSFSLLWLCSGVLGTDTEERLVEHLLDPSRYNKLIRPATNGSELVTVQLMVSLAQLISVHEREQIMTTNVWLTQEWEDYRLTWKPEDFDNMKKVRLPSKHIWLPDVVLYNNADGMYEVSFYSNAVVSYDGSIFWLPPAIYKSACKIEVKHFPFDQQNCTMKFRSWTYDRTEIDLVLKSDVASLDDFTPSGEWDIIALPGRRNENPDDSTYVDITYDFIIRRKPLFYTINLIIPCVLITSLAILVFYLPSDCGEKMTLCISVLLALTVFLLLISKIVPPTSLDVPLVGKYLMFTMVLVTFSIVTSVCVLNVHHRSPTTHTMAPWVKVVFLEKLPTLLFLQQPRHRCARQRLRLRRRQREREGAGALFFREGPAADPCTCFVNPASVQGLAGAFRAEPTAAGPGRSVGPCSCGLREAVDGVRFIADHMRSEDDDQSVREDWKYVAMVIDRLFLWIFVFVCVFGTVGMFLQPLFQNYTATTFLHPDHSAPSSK
TEST: Binding affinity towards rat nicotinic acetylcholine receptor alpha2-beta2 expressed in HEK293 cells using [3H]EB as radioligand
Flag rule - Ki less than 30 nM flags Met; the remaining entries get Not met.

| MOLECULE | CAT |
| --- | --- |
| C[N+](C)(C)CCO | Not met |
| Ic1cncc(O[C@H]2CCN2)c1 | Met |
| C[N+](C)(C)CCOC(N)=O | Not met |
| C[N+]1(C)CCN(c2ccccc2)CC1 [DIMETHYLPHENYLPIPERAZINIUM IODIDE] | Met |
| CC(=O)OCC[N+](C)(C)C | Met |
| O=c1cccc2n1C[C@@H]1CNC[C@H]2C1 | Met |
| c1cncc(OC[C@@H]2CCN2)c1 | Met |

---

EXPERIMENTAL TARGET: Neuronal acetylcholine receptor; alpha3/beta2 (Rattus norvegicus, UniProt P04757+P12390)
TEST: Binding affinity towards rat Nicotinic acetylcholine receptor alpha3-beta2 expressed in HEK293 cells using [3H]EB as radioligand

| MOLECULE | Ki / nM |
| --- | --- |
| Ic1cncc(O[C@H]2CCN2)c1 | 0.42 |
| c1cncc(OC[C@@H]2CCN2)c1 | 0.24 |
| C[N+](C)(C)CCO | 37000 |
| C[N+](C)(C)CCOC(N)=O | 1100 |
| C[N+]1(C)CCN(c2ccccc2)CC1 [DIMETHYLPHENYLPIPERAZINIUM IODIDE] | 42 |
| O=c1cccc2n1C[C@@H]1CNC[C@H]2C1 | 37 |

---

Listed below: Ki values for each entry.
EXPERIMENTAL TARGET: Neuronal acetylcholine receptor; alpha4/beta4 (Rattus norvegicus, UniProt P09483+P12392)
TEST: Binding affinity towards rat Nicotinic acetylcholine receptor alpha4-beta4 expressed in HEK293 cells using [3H]EB as radioligand
Assay type: cell-based
ATTRIBUTE MEASURED: Ki (nM)

| INPUT SMILES | TEST RESULT |
| --- | --- |
| C[N+](C)(C)CCOC(N)=O | 1300 |
| C[N+](C)(C)CCO | 34000 |
| c1cncc(OC[C@@H]2CCN2)c1 | 7.1 |
| O=c1cccc2n1C[C@@H]1CNC[C@H]2C1 | 2.2 |
| Ic1cncc(O[C@H]2CCN2)c1 | 24 |

---

EXPERIMENTAL TARGET: Neuronal acetylcholine receptor; alpha4/beta2 (Rattus norvegicus, UniProt P09483+P12390)
Sequence (P09483 whole entry): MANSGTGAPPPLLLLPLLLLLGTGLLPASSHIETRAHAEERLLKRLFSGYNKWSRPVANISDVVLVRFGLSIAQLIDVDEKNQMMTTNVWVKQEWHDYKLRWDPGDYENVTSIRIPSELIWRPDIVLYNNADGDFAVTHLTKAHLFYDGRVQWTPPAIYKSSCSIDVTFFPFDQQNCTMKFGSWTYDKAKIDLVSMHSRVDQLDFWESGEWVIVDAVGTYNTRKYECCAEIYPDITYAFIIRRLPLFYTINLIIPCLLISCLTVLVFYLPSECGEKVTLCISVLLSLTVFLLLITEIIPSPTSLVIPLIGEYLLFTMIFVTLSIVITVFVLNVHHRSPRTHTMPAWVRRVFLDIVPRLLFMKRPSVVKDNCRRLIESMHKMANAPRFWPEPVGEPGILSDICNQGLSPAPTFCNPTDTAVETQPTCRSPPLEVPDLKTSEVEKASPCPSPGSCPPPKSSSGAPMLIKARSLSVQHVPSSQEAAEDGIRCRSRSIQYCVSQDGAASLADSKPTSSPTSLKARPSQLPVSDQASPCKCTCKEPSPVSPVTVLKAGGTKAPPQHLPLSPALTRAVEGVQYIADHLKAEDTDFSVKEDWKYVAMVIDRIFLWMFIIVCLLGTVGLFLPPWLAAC
Sequence (P12390 whole entry): as the sequence (P12390 whole entry) above
TEST: Binding affinity towards rat Nicotinic acetylcholine receptor alpha4-beta2 expressed in HEK293 cells using [3H]EB as radioligand
pKi: −log10 of the molar value.

| INPUT SMILES | pKi |
| --- | --- |
| C[N+](C)(C)CCO | 4.43 |
| O=c1cccc2n1C[C@@H]1CNC[C@H]2C1 | 8.82 |
| C[N+](C)(C)CCOC(N)=O | 6.23 |
| Ic1cncc(O[C@H]2CCN2)c1 | 10.21 |
| c1cncc(OC[C@@H]2CCN2)c1 | 9.85 |

---

Examples of molecules with documented Ki follow.
EXPERIMENTAL TARGET: Neuronal acetylcholine receptor; alpha3/beta4 (Rattus norvegicus, UniProt P04757+P12392)
Sequence (P04757 whole entry): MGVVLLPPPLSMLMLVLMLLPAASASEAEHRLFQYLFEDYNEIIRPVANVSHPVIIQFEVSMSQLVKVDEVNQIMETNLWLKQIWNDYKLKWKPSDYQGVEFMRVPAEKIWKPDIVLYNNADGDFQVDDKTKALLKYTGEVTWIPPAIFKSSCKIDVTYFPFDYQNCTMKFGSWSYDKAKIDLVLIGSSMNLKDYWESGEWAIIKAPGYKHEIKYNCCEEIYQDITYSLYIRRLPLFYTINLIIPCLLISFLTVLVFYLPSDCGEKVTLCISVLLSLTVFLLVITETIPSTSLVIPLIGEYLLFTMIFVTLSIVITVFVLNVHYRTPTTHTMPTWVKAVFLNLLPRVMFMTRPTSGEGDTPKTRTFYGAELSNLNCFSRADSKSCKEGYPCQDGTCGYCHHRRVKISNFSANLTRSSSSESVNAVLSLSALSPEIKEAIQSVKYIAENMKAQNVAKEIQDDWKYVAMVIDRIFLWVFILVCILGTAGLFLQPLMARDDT
Sequence (P12392 whole entry): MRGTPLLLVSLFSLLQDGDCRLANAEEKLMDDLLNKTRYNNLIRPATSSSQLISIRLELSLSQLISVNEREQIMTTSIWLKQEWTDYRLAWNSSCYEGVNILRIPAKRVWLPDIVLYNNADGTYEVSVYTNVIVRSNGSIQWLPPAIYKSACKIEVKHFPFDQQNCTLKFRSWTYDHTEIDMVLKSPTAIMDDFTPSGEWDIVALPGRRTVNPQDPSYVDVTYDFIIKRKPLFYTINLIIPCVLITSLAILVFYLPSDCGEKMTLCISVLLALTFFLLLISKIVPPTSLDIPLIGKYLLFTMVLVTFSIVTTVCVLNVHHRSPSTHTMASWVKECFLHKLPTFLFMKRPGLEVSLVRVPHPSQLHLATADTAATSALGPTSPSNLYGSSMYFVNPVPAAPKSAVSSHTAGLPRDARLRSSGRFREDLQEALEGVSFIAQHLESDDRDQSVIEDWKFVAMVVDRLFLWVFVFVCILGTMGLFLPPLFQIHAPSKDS
TEST: Binding affinity towards rat Nicotinic acetylcholine receptor alpha3-beta4 expressed in HEK293 cells using [3H]EB as radioligand

| MOLECULE | Ki (nM) |
| --- | --- |
| C[N+]1(C)CCN(c2ccccc2)CC1 [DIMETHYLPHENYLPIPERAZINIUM IODIDE] | 800 |
| Ic1cncc(O[C@H]2CCN2)c1 | 290 |
| C[N+](C)(C)CCOC(N)=O | 4800 |
| C[N+](C)(C)CCO | 48000 |
| c1cncc(OC[C@@H]2CCN2)c1 | 72 |
